assayTarget: Trace amine-associated receptor 1 (Homo sapiens) (UniProt Q96RJ0)
Sequence (Q96RJ0 whole entry, looked up): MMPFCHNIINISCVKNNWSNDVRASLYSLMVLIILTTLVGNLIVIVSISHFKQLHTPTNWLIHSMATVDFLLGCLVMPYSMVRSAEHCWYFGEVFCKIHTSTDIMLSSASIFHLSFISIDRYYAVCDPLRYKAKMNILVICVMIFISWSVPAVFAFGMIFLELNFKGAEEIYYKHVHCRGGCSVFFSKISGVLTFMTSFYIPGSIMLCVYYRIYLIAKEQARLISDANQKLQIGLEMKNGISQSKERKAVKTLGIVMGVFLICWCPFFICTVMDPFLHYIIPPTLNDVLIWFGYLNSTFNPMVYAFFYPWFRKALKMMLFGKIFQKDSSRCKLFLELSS
testProtocol: TAAR1 desensitization potency of agonists, dose response, counter-screen for TAAR1 agonist project, cell-based, fluorescence, late stage (AID 743231); cut-off not given, nearly all actives have IC50 up to about 7.9 µM
protocolConditions: hTAAR1 cells
Pick from active, inactive when you respond.

molecule	labelClass
O=C(CCCCl)N1CCc2[nH]c3ccccc3c2C1	active
c1ccc2c(c1)CCN(c1nc3cc4c(cc3s1)OCO4)C2	active
NC(N)=NN=Cc1c(Cl)cccc1Cl	active
O=C(CCN1CCC(c2ccccc2)C1)c1cccs1 (stereo not given)	active
CCOC(=O)C(NC(=O)CC)(N1CCc2ccccc2C1)C(F)(F)F (stereo not given)	active

Record request — test call for "O=C(CCN1CCc2ccccc2CC1)c1ccc2c(c1)OCCO2"
active

Given "c1ccc2c3c([nH]c2c1)CCNC3" , state the outcome it received in this test.
active

The reported measurements were obtained from PubChem BioAssay AID743231.
